Molecular target: T1, rat APJ receptor (rat, UniProt Q9JHG3 1-377)
T1 sequence (looked up): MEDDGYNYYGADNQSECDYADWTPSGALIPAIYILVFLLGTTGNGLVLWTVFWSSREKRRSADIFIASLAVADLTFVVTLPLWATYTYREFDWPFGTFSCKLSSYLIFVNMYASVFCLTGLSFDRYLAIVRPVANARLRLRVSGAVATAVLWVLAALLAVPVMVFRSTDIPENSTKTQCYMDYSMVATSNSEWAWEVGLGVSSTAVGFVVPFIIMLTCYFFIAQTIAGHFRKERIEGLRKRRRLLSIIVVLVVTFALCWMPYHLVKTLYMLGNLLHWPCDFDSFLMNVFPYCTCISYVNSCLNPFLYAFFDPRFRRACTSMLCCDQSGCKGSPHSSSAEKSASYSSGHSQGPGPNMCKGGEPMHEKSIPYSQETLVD
Test: cell-based or functional assay
Starred links: 1 amine or outer side, 2 acyl side, 3 side chain; linkers in the order of their positions; H or OH if unused. Non-standard residues stand in square brackets, D forms with d. *: point of attachment. AC4Abu = α-carboxy-4-aminobutyric acid, O=C(C(CCN[*:1])C(=O)[*:3])[*:2]; Oic = O=C(O)[C@@H]1C[C@@H]2CCCC[C@@H]2N1; Phe(4-Cl) = N[C@@H](Cc1ccc(Cl)cc1)C(=O)O; γGlu = O=C(O)[C@H](CCC(=O)[*:2])N[*:1]; NMeR = CN[C@@H](CCCNC(=N)N)C(=O)O; Palmitoyl = CCCCCCCCCCCCCCCC(=O)*; Tridecanoyl = CCCCCCCCCCCCC(=O)*; Tic = O=C(O)[C@@H]1Cc2ccccc2CN1; Cha = N[C@@H](CC1CCCCC1)C(=O)O; NMeL = CN[C@@H](CC(C)C)C(=O)O; Aic = NC1(C(=O)O)Cc2ccccc2C1; Pip = O=C(O)[C@@H]1CCCCN1; Nle = CCCC[C@H](N)C(=O)O; AEEA = NCCOCCOCC(=O)O; BLeu = β-leucine
PROPERTY: EC50 Rat APJ Receptor
Note: state the figure and append the unit.

Check out these entries, answers already filled in.
# BINDER, MEASUREMENT
data = [
    ("Ac-RQRP[NMeR][NMeL]SHKGP[Nle]P[Phe(4-Cl)]-OH (SMILES CCCC[C@H](NC(=O)[C@@H]1CCCN1C(=O)CNC(=O)[C@H](CCCCN)NC(=O)[C@H](Cc1c[nH]cn1)NC(=O)[C@H](CO)NC(=O)[C@H](CC(C)C)N(C)C(=O)[C@H](CCCNC(=N)N)N(C)C(=O)[C@@H]1CCCN1C(=O)[C@H](CCCNC(=N)N)NC(=O)[C@H](CCC(N)=O)NC(=O)[C@H](CCCNC(=N)N)NC(C)=O)C(=O)N1CCC[C@H]1C(=O)N[C@@H](Cc1ccc(Cl)cc1)C(=O)O) [SEQ ID NO: 67]", "1.4 nM"),
    ("Tridecanoyl-[γGlu][AEEA][AEEA][BLeu]RP[NMeR][Cha]SHKG[Oic][Nle]P[Phe(4-Cl)]-OH [SEQ ID NO: 393]", "2.67 nM"),
    ("Palmitoyl-[AC4Abu][AEEA][AEEA][dQ]RP[NMeR][Cha]SHKG[Pip][Nle]P[Aic]-OH (SMILES CCCCCCCCCCCCCCCC(=O)NCCC(C(=O)O)C(=O)NCCOCCOCC(=O)NCCOCCOCC(=O)N[C@H](CCC(N)=O)C(=O)N[C@@H](CCCNC(=N)N)C(=O)N1CCC[C@H]1C(=O)N(C)[C@@H](CCCNC(=N)N)C(=O)N[C@@H](CC1CCCCC1)C(=O)N[C@@H](CO)C(=O)N[C@@H](Cc1c[nH]cn1)C(=O)N[C@@H](CCCCN)C(=O)NCC(=O)N1CCCC[C@H]1C(=O)N[C@@H](CCCC)C(=O)N1CCC[C@H]1C(=O)NC1(C(=O)O)Cc2ccccc2C1) [SEQ ID NO: 590]", "6.2 nM"),
]

Turning now to a further binder:
For the binder Palmitoyl-[AC4Abu][AEEA][AEEA][dQ]RP[NMeR][Cha]SHKG[Pip][Nle]P[Tic]-OH (SMILES CCCCCCCCCCCCCCCC(=O)NCCC(C(=O)O)C(=O)NCCOCCOCC(=O)NCCOCCOCC(=O)N[C@H](CCC(N)=O)C(=O)N[C@@H](CCCNC(=N)N)C(=O)N1CCC[C@H]1C(=O)N(C)[C@@H](CCCNC(=N)N)C(=O)N[C@@H](CC1CCCCC1)C(=O)N[C@@H](CO)C(=O)N[C@@H](Cc1c[nH]cn1)C(=O)N[C@@H](CCCCN)C(=O)NCC(=O)N1CCCC[C@H]1C(=O)N[C@@H](CCCC)C(=O)N1CCC[C@H]1C(=O)N1Cc2ccccc2C[C@H]1C(=O)O) [SEQ ID NO: 598] , give its measured EC50 Rat APJ Receptor value. 2.84 nM
